Taken from the supplement of paper PMC10127200.

Test system: FB
Experimental details: Euclidean distance of Cell Painting phenotypic profile (signed KS, 77 features) to DMSO centroid (dimensionless distance); 5 or 10 uM (library dependent); higher = stronger phenotypic change vs DMSO (phenoactivity)
Run parameters: 48 h
Structures can show the parent of a compound that is named as a salt.
Measurement label: Euclidean distance

>  <Molecule>
CC1(C)S[C@@H]2[C@H](NC(=O)COc3ccccc3)C(=O)N2[C@H]1C(=O)O [Penicillin V potassium salt]

>  <Measurement label>
Euclidean distance

>  <Assay result>
0.767

$$$$
>  <Molecule>
O=C(COc1ccc(C(=O)c2ccccc2)cc1)NC1CCN(Cc2ccccc2)CC1

>  <Measurement label>
Euclidean distance

>  <Assay result>
0.817

$$$$
>  <Molecule>
COc1cc(NS(=O)(=O)c2ccc(N)cc2)ncn1

>  <Measurement label>
Euclidean distance

>  <Assay result>
0.916

$$$$
>  <Molecule>
c1cc(CN2CCCNCCNCCCNCC2)ccc1CN1CCCNCCNCCCNCC1 [Plerixafor 8HCl (AMD3100 8HCl)]

>  <Measurement label>
Euclidean distance

>  <Assay result>
1.5

$$$$
>  <Molecule>
C[C@](N)(Cc1ccc(O)c(O)c1)C(=O)O

>  <Measurement label>
Euclidean distance

>  <Assay result>
0.909

$$$$
>  <Molecule>
CCOC(=O)c1ncn2c1CN(C)C(=O)c1cc(F)ccc1-2

>  <Measurement label>
Euclidean distance

>  <Assay result>
1.11

$$$$
>  <Molecule>
CC(=O)S[C@@H]1CC2=CC(=O)CC[C@]2(C)[C@H]2CC[C@@]3(C)[C@@H](CC[C@@]34CCC(=O)O4)[C@H]12

>  <Measurement label>
Euclidean distance

>  <Assay result>
1.04

$$$$
>  <Molecule>
Nc1cccc(-c2cc3c(Oc4cccc(O)c4)ncnc3[nH]2)c1

>  <Measurement label>
Euclidean distance

>  <Assay result>
2.71

$$$$
